target: Amyloid-beta precursor protein (Homo sapiens)
Sequence (P05067 whole entry): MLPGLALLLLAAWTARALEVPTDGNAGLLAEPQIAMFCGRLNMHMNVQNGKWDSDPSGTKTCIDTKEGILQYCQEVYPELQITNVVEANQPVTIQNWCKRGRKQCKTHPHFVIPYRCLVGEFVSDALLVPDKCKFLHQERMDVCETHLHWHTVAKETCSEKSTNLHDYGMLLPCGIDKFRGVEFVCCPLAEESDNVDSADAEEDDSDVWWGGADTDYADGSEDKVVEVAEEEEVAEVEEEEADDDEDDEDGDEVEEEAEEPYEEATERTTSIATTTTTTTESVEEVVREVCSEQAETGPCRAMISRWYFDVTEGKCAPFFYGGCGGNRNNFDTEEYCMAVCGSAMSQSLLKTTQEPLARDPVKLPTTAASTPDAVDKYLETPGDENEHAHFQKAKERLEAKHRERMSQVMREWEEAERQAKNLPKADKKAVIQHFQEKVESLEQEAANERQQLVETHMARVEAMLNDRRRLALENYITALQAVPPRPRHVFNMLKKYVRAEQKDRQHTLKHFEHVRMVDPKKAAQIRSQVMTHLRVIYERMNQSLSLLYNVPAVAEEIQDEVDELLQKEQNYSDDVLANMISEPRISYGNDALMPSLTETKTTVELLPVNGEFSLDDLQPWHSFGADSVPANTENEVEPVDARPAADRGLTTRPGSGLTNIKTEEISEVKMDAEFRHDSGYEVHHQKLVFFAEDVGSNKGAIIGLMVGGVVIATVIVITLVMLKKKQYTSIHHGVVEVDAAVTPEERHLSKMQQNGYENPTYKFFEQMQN
assay-info: Inhibition of amyloid beta (1 to 42) (unknown origin) aggregation expressed in Escherichia coli BL21 (DE3) at 10 uM incubated for 24 hrs by microplate reader assay relative to control
measured-attribute: inhibition

[[record]]
smiles_code = "O=S(=O)(c1ccccc1)n1ccc2c(OCCNCCNCc3ccccc3)cccc21"
target = "Amyloid-beta precursor protein (Homo sapiens)"
endpoint_result = "26.9%"

[[record]]
smiles_code = "COc1ccc(CNCCNCCOc2cccc3c2ccn3S(=O)(=O)c2ccccc2)cc1"
target = "Amyloid-beta precursor protein (Homo sapiens)"
endpoint_result = "41.4%"

[[record]]
smiles_code = "CCN(C)C(=O)Oc1cccc(CNCCNCCOc2cccc3c2ccn3S(=O)(=O)c2ccccc2)c1"
target = "Amyloid-beta precursor protein (Homo sapiens)"
endpoint_result = "77.5%"

[[record]]
smiles_code = "O=S(=O)(c1ccccc1)n1ccc2c(OCCNCCNCc3ccc(F)cc3)cccc21"
target = "Amyloid-beta precursor protein (Homo sapiens)"
endpoint_result = "23.7%"

[[record]]
smiles_code = "O=S(=O)(c1ccccc1)n1ccc2c(OCCNCCNCc3ccccc3Cl)cccc21"
target = "Amyloid-beta precursor protein (Homo sapiens)"
endpoint_result = "27.5%"


----------
Entries and their measured pIC50 follow.
target: UniProt:P05067
assay-info: Inhibition of HFIP-pretreated human recombinant amyloid beta (1 to 42) self aggregation incubated up to 48 hrs under shaking condition and measured every 3 min by Thioflavin T based fluorescence assay
pIC50: −log10 of the molar value.
measured-attribute: pIC50

[[record]]
smiles_code = "CCN(C)C(=O)Oc1cccc(CNCCNCCOc2cccc3c2ccn3S(=O)(=O)c2ccccc2)c1"
measured_attribute = "pIC50"
endpoint_result = 5.86

[[record]]
smiles_code = "O=S(=O)(c1ccccc1)n1ccc2c(OCCNCCNc3c4c(nc5ccccc35)CCCC4)cccc21"
measured_attribute = "pIC50"
endpoint_result = 5.96


----------
target: UniProtKB P50406
Sequence (P50406 whole entry): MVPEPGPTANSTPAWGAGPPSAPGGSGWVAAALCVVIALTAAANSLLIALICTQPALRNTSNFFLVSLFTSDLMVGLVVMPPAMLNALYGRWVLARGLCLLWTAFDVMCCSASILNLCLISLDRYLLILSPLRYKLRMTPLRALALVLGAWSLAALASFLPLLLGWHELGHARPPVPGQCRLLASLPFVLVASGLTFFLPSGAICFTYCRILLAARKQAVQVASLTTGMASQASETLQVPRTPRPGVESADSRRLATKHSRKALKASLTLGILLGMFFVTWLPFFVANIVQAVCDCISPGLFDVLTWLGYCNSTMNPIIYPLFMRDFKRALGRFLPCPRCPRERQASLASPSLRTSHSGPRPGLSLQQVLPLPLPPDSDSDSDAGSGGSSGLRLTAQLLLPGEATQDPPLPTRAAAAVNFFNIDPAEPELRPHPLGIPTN
assay-info: Antagonist activity at human 5HT6R expressed in 1321N1 cells assessed as inhibition of […] cAMP production measured after 30 mins by TR-FRET assay
Format: functional, cell-based
condition-notes: filed as antagonist
Classification field: T = Kb at or over 10 nM; F = Kb under 10 nM.

[[record]]
smiles_code = "O=S(=O)(c1ccccc1)n1ccc2c(OCCNCCNCc3cccc(C(F)(F)F)c3)cccc21"
target = "UniProtKB P50406"
cat = "F"

[[record]]
smiles_code = "O=S(=O)(c1ccccc1)n1ccc2c(OCCNCCNCc3ccccc3)cccc21"
target = "UniProtKB P50406"
cat = "F"

[[record]]
smiles_code = "CCN(C)C(=O)Oc1cccc(CNCCNCCOc2cccc3c2ccn3S(=O)(=O)c2ccccc2)c1"
target = "UniProtKB P50406"
cat = "T"

[[record]]
smiles_code = "O=S(=O)(c1ccccc1)n1ccc2c(OCCNCCNCc3ccccc3Cl)cccc21"
target = "UniProtKB P50406"
cat = "T"

